# test_system: C-Raf FL (full length CRAF with Y340E and Y341E activating mutations, co-expressed with h14-3-3 zeta) (Homo sapiens (Human), UniProt P04049, Y340E/Y341E)
# Sequence (P04049 whole entry Y340E/Y341E): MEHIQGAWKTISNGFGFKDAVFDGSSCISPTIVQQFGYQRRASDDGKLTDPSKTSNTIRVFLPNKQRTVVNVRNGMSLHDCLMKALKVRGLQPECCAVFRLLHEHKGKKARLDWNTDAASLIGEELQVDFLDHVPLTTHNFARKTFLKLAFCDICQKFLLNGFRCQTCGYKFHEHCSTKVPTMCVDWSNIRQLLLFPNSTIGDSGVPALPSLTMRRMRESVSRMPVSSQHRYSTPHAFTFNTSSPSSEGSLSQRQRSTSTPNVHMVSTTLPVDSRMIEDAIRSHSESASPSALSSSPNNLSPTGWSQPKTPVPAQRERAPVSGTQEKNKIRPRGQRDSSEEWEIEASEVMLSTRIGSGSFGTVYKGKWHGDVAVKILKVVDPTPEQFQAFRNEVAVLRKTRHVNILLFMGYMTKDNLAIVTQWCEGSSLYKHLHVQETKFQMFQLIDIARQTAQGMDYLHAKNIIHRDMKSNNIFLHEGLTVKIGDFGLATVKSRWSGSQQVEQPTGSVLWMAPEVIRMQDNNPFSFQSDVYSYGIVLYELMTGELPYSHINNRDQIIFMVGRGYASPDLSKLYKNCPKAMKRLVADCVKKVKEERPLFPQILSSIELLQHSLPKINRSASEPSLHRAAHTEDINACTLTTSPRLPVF
# Sequence (P63104 whole entry partner): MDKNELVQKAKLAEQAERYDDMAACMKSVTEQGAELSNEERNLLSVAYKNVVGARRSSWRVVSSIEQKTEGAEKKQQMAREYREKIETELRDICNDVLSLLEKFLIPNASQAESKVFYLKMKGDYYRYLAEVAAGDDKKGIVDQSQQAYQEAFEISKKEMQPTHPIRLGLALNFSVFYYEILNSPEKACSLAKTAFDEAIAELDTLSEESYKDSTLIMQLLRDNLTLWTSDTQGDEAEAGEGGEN
# assay_name: In vitro Raf activity determination, AlphaScreen p-MEK readout, c-Raf (C-Raf FL)
# experimental_conditions: c-Raf approximately 4 nM, ATP 1 μM, pre-incubation 60 minutes, reaction 1 hour
quantity_kind: IC50 (pM)
Numbers only, in pM.

Some solved cases for reference:
[[record]]
compound = "CCN1C[C@@H]2COCCN2c2cc(-c3cc(NC(=O)c4ccnc(C(F)(F)F)c4)ccc3C)cnc2C1=O"
observed_result = 100

[[record]]
compound = "CCN1C[C@@H]2COCC[C@H]2c2cc(-c3cc(NC(=O)c4ccnc(C(F)(F)F)c4)ccc3C)cnc21"
observed_result = 100

[[record]]
compound = "Cc1ccc(NC(=O)c2ccnc(C(C)(C)F)c2)cc1-c1ccc2c(c1)N1CCOC[C@@H]1[C@](F)(CO)C2"
observed_result = 100

[[record]]
compound = "Cc1ccc(NC(=O)c2ccnc(C(F)(F)F)c2F)cc1-c1ccc2c(c1)N1CCOC[C@H]1[C@](F)(CO)C2 [Example 385]"
observed_result = 600

[[record]]
compound = "CCN1C(=O)Cc2nncn2-c2cc(-c3cc(NC(=O)c4cccc(C(F)(F)F)c4)cnc3C)cnc21"
observed_result = 2700

[[record]]
compound = "CCC(=O)NC1CC2COCCN2c2cc(-c3cc(NC(=O)c4ccnc(C(F)(F)F)c4)ccc3C)cnc21 (racemic)"
observed_result = 34


Turning to the following compound.
[ask] Could you tell me which IC50 is on file for Cc1ccc(NC(=O)c2ccnc(C(C)(F)F)c2)cc1-c1ccc2c(c1)N1CCOC[C@@H]1[C@@](F)(CO)C2 [Example 370] ?
[reply] 100

###

# test_system: C-Raf FL (full length CRAF with Y340E and Y341E activating mutations, co-expressed with h14-3-3 zeta) (Homo sapiens (Human), UniProt P04049, Y340E/Y341E)
# assay_name: In vitro Raf activity determination, AlphaScreen p-MEK readout, c-Raf (C-Raf FL)
# experimental_conditions: c-Raf approximately 4 nM, ATP 1 μM, pre-incubation 60 minutes, reaction 1 hour
quantity_kind: IC50 (nM)
One number for each entry, in nM.

Some solved cases for reference:
[[record]]
molecule = "CCN1C(=O)C(C)(C)c2nncn2-c2cc(-c3cc(NC(=O)c4ccnc(C(F)(F)F)c4)ccc3C)cnc21"
quantity_kind = "IC50"
observed_result = 4.7

[[record]]
molecule = "Cc1ncc(NC(=O)c2cccc(C(F)(F)F)c2)cc1-c1ccc2c(c1)N1CCOC[C@H]1[C@](F)(CO)C2"
quantity_kind = "IC50"
observed_result = 1

[[record]]
molecule = "Cc1ccc(NC(=O)c2ccnc(C(C)(F)F)c2)cc1-c1cnc2c(c1)N1CCOC[C@H]1C[C@@]2(C)O (racemic)"
quantity_kind = "IC50"
observed_result = 0.0099

[[record]]
molecule = "Cc1ccc(NC(=O)c2ccnc(C(F)(F)F)c2)cc1-c1cnc2c(c1)N1CCOC[C@H]1C1(COC1)C2"
quantity_kind = "IC50"
observed_result = 0.063

[[record]]
molecule = "Cc1ccc(NC(=O)c2cncc(C(F)(F)F)c2)cc1-c1ccc2c(c1)N1CCOC[C@H]1[C@](F)(CO)C2 [Example 387]"
quantity_kind = "IC50"
observed_result = 0.3


Here are 3 molecules. What values of IC50 were reported for them?
1. Cc1ccc(NC(=O)c2ccnc(C(C)(C)C)c2)cc1-c1ccc2c(c1)N1CCOC[C@H]1[C@](F)(CF)C2
2. Cc1ccc(NC(=O)c2ccnc(C(C)(C)F)c2)cc1-c1cc(F)c2c(c1)N1CCOC[C@@H]1[C@@](F)(CO)C2
3. CCN1C(=O)CC2COCCN2c2cc(-c3cc(NC(=O)c4ccnc(C(F)(F)F)c4)ccc3C)cnc21 (racemic)

[reply]
1. 5.5
2. 0.6
3. 0.023

Here are 3 molecules. What values of IC50 were reported for them?
1. Cc1ccc(NC(=O)c2ccnc(C(C)(F)F)c2)cc1-c1cnc2c(c1)C1C3COCC3C1C(=O)N2CCO (stereo not drawn)
2. CCN1C(=O)C2(F)COCC[C@@H]2c2cc(-c3cc(NC(=O)c4ccnc(C(F)(F)F)c4)ccc3C)cnc21 (stereo partly drawn)
3. Cc1ccc(NC(=O)c2ccnc(C(C)(C)F)c2)cc1-c1cc2n(c(=O)c1)CC[C@H]1CCOCCN21

[reply]
1: 0.4; 2: 0.5; 3: 0.5

Here are 8 molecules. What values of IC50 were reported for them?
1. Cc1ncc(NC(=O)c2cccc(C(F)(F)F)c2)cc1-c1ccc2c(c1)N1CCOCC1C1(COC1)C2 (racemic)
2. Cc1ncc(NC(=O)c2cccc(C(F)(F)F)c2)cc1-c1ccc2c(c1)N1CCOCC1CC2O (racemic)
3. Cc1ccc(NC(=O)c2ccnc(C(F)(F)F)c2)cc1-c1cnc2c(c1)N1CCOCC1CC2N (racemic)
4. CCN1C(=O)[C@@H]2COCC[C@H]2c2cc(-c3cc(NC(=O)c4ccnc(C(F)(F)F)c4)ccc3C)cnc21
5. Cc1ccc(NC(=O)c2ccnc(C(C)(F)F)c2)cc1-c1ccc2c(c1)N1CCOC[C@H]1[C@@](C)(C#N)C2 [Example 373]
6. CCN1C(=O)C2CCOCCC2c2cc(-c3cc(NC(=O)c4ccnc(C(C)(C)F)c4)cnc3C)cnc21 (stereo not drawn)
7. Cc1ccc(NC(=O)c2ccnc(C(C)(C)F)c2)cc1-c1ccc2c(c1)N1CCOCC1C(CS(C)(=O)=O)C2 (racemic)
8. Cc1ccc(NC(=O)c2ccnc(C(F)(F)F)c2)cc1-c1cnc2c(c1)N1CCOC[C@H]1C[C@@]2(C)O (racemic)

[reply]
[0.071, 0.051, 0.019, 0.1, 0.4, 0.2, 0.2, 0.0023]

Here are 5 molecules. What values of IC50 were reported for them?
1. Cc1ncc(NC(=O)c2ccnc(C(C)(C)C)c2)cc1-c1ccc2c(c1)N1CCOC[C@H]1[C@](F)(CF)C2
2. Cc1ccc(NC(=O)c2ccnc(C(F)(F)F)c2)cc1-c1cnc2c(c1)N1CCOC[C@@H]1C[C@@H]2O
3. Cc1ccc(NC(=O)c2ccnc(C(C)(C)F)c2)cc1-c1ccc2c(c1)N1CCOCC1CC2O (racemic) [Example 7]
4. Cc1ccc(NC(=O)c2ccnc(C(C)(F)F)c2)cc1-c1cc(F)c2c(c1)N1CCOC[C@H]1[C@@](F)(CO)C2
5. Cc1ccc(NC(=O)c2ccnc(C(F)(F)F)c2)cc1-c1cnc2c(c1)N1CCOC[C@H]1[C@H](C(C)(C)O)C2

[reply]
1. 8
2. 0.013
3. 0.033
4. 0.6
5. 0.4
